SYSTEM_UNDER_TEST: Adenosine receptor A2a (Homo sapiens)
Sequence (P29274 whole entry): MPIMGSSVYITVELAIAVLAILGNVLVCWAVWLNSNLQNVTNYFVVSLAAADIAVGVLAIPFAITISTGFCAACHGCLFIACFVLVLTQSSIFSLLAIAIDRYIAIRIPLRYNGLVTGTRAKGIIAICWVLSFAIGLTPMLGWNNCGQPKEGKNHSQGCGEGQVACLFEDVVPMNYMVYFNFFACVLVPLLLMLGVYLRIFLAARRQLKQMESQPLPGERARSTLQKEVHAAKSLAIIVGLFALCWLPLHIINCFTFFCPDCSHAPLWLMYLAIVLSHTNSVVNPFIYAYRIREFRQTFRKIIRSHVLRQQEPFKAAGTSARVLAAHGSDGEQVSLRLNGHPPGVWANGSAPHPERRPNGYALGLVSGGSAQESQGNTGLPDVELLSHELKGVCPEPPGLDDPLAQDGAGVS
MEASUREMENT_NAME: Ki (nM)

Field: example entries. Status: answers known.
>>> df
                 molecular_string                      system_under_test  measurement_name  reported_result
0  COc1ccc(-c2nc(N)nc3ccccc23)cc1  Adenosine receptor A2a (Homo sapiens)                Ki              736
1   Cc1ccc(-c2nc(N)nc3ccccc23)cc1  Adenosine receptor A2a (Homo sapiens)                Ki             1500
2     Nc1nc(-c2ccccc2N)c2ccccc2n1  Adenosine receptor A2a (Homo sapiens)                Ki             2000
3  COc1cccc(-c2nc(N)nc3ccccc23)c1  Adenosine receptor A2a (Homo sapiens)                Ki              708
4     Cc1ccccc1-c1nc(N)nc2ccccc12  Adenosine receptor A2a (Homo sapiens)                Ki             3300

P = Nc1nc(-c2cccc(F)c2)c2ccccc2n1
Q = Nc1nc(-c2ccoc2)c2ccccc2n1
For the pair P and Q , which member has the lower Ki number? Indicate your choice by writing its label.
P
(P: 174 nM, Q: 696 nM)

Numbers sourced from ChEMBL document CHEMBL5108007.
